# method.summary: NCI Yeast Anticancer Drug Screen. Data for the sgs1 mgt1 strain (AID 161);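 note: 0% = growth of cultures given vehicle only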
# condition.details: S. cerevisiae sgs1 mgt1 strain, at 5.0 µM (retest, dose inferred, filed as 0.5), hits give high values
About 79,000 compounds went through this panel and 15% of them were active in at least one assay; those are over-represented in the sample as a whole. Active and inactive are the calls of the source. Cut-off read from the data, not from the text of the source: active = growth inhibition above about 70%; inactive = the rest.
Listing of recorded growth inhibition by entry.

compound: Cc1nc2c(Br)cc(Br)cc2c(=O)n1-c1ccccc1N
growth inhibition: 13% (inactive)
//
compound: [Br][Cd][Br].c1ccc([PH+](c2ccccc2)c2ccccc2)cc1.c1ccc([PH+](c2ccccc2)c2ccccc2)cc1
growth inhibition: 18% (inactive)
//
compound: NC(Cc1c[nH]c2ccccc12)P(=O)(O)O (centres undefined)
growth inhibition: 3% (inactive)
//
compound: [Cl][Pt+2][Cl].[NH-]C(c1ccccc1)C([NH-])c1ccccc1 (centres undefined)
growth inhibition: -10% (inactive)
